# Tested on: RmlC (dTDP-4-dehydrorhamnose 3,5-epimerase) and RmlD (dTDP-4-dehydrorhamnose reductase), coupled enzyme assay
# assay_overview: RmlC and RmlD coupled enzyme inhibitors, primary screen, biochemical, 384-well, compound mixtures, retest (AID 1532)
# condition_notes: 384-well mixture HTS, at 5.5 µM
The campaign covered roughly 110,000 compounds. About 420 (0.38%) were called active. Rule as the data show it: active = inhibition above about 30% (passing the limit was not always enough); inconclusive = no clear call, values can overlap the other calls. The list comes from a sample in which actives are over-represented; it also holds close analogues and randomly drawn compounds.
Can you answer with just one of these options? Yes (active), No (inactive)

Take a look at these entries with their results.
C#Cc1ccc([C@@H]2C=C(C(=O)O)O[C@H](OCCCCO)C2)cc1 | No
COc1ccccc1-c1nc(C#N)c(N2CCC(C(N)=O)CC2)o1 | Yes
C[C@@H]1NC(=O)c2cc([N+](=O)[O-])cc(F)c2NCCC[C@@H](C(N)=O)NC(=O)[C@H](CC(N)=O)NC1=O | No
CCCC[C@@H]1CN=C(N)N1CCc1cccc(F)c1 | No

Exercise: Hey, what did the test say about CCO[C@@H]1OC(C(N)=O)=C[C@H](c2ccc(Br)cc2)[C@H]1CCCO ?
Solution: No

Exercise: Hey, what did the test say about NC(=O)C1=C[C@@H](c2csc3ccccc23)C[C@@H](OCc2ccc(CO)cc2)O1 ?
Solution: No

Exercise: Hey, what did the test say about CCOC(=O)CN1C(=O)N[C@@H](c2ccc(Br)cc2)C(C(C)=O)=C1C ?
Solution: No

Exercise: Hey, what did the test say about CC1(C)S[C@@H]2[C@H](NC(=O)COc3ccccc3)C(=O)N2C1C(=O)OCc1ccccc1 (some centres undefined) ?
Solution: No

Exercise: Hey, what did the test say about C=C1C2C[C@H](O)C(C)(C)[C@@]2(O)[C@H](O)C[C@]23C[C@@](C)(O)[C@H](CC[C@H]12)[C@H]3O (some centres undefined) ?
Solution: No

====

# System: RmlC (dTDP-4-dehydrorhamnose 3,5-epimerase) and RmlD (dTDP-4-dehydrorhamnose reductase), coupled enzyme assay
# assay_overview: RmlC and RmlD coupled enzyme inhibitors, primary screen, biochemical, 384-well, compound mixtures, retest (AID 1532)
# condition_notes: 384-well mixture HTS, at 5.5 µM
Out of some 110,000 compounds screened, about 420 (0.38%) were called active. Rule as the data show it: active = inhibition above about 30% (passing the limit was not always enough); inconclusive = no clear call, values can overlap the other calls. What follows is part of a selection rich in actives, with near analogues and random picks from the rest.
Can you answer with just one of these options? TRUE = active, FALSE = inactive

Take a look at these entries with their results.
C#CCOCCOCCOCCNc1nc(N2CCN(C(=O)[C@H](C(C)C)n3cc(CCO)nn3)CC2)nc(N2CCN(C(=O)[C@H](C(C)C)n3cc(CCO)nn3)CC2)n1 | FALSE
CCCn1c(=NC(C)=O)c(C(=O)OCC)cc2c(=O)n3ccccc3nc21 | TRUE
CCn1c(=N)c(S(=O)(=O)c2ccc(F)cc2)cc2c(=O)n3ccccc3nc21 | FALSE

From here, focus on the item given below.
Exercise: Hey, what did the test say about CCO[C@H]1OC(C(=O)O)=C[C@@H](C2CCCCC2)[C@@H]1CCCO ?
Solution: FALSE

====

# Test system: RmlC (dTDP-4-dehydrorhamnose 3,5-epimerase) and RmlD (dTDP-4-dehydrorhamnose reductase), coupled enzyme assay
# assay_overview: RmlC and RmlD coupled enzyme inhibitors, primary screen, biochemical, 384-well, compound mixtures, retest (AID 1532)
# condition_notes: 384-well mixture HTS, at 5.5 µM, stronger effect = higher value
About 420 (0.38%) of roughly 110,000 compounds were called active. The full list was thinned out, with actives kept by preference.
Parameter inhibition: see the listing below.
Just the number please, in %, no unit attached.

Study these solved cases before continuing.
NC(=O)CC(NC(=O)Cc1cccc2ccccc12)c1ccc(NCc2cc(F)ccc2F)c([N+](=O)[O-])c1 (stereo not drawn) | -7.96
CC[C@H](C)[C@@H](C(=O)N1CCNCC1)n1cc([C@@H](N)Cc2ccc(O)cc2)nn1 | -30
O=C(C1=C[C@H](c2coc3ccccc3c2=O)C[C@H](OCc2ccc(CO)cc2)O1)N1CCN(Cc2ccccc2)CC1 | 13.6
CCO[C@@H]1OC(C(=O)NC2CC2)=C[C@H](C)[C@H]1CCCO | -10.3
C=CCNC(=O)c1ccc2c3n(nc2c1)-c1ccc(C)cc1CO3 | -4.6

Exercise: Form field: reported inhibition of C#CCOCCOCCOCCNc1nc(N2CCN(C(=O)[C@H](CCC(=O)O)n3cc(C(N)CO)nn3)CC2)nc(N2CCN(C(=O)[C@H](Cc3ccc(O)cc3)n3cc(C(N)[C@H](C)CC)nn3)CC2)n1 (stereo partly drawn)
Solution: 7.3

Exercise: Form field: reported inhibition of Cc1ccc(C)c(CSc2nc(-c3ccco3)nc3c2c(=O)n(C)c(=O)n3C)c1
Solution: 4.13

Exercise: Form field: reported inhibition of COP1(=O)C[C@@H](O)[C@@H](O)[C@@H](COCc2ccccc2)O1 (stereo partly drawn)
Solution: 11.1

====

# System: RmlC (dTDP-4-dehydrorhamnose 3,5-epimerase) and RmlD (dTDP-4-dehydrorhamnose reductase), coupled enzyme assay
# assay_overview: RmlC and RmlD coupled enzyme inhibitors, primary screen, biochemical, 384-well, compound mixtures, retest (AID 1532)
# condition_notes: 384-well mixture HTS, at 5.5 µM, stronger effect = higher value
In all, about 110,000 compounds went through this assay and about 420 (0.38%) were called active. The sample holds actives, similar compounds and a random draw of the others, so the mix is not that of the screen.
Parameter inhibition: see the listing below.
Just the number please, in %, no unit attached.

Study these solved cases before continuing.
C=CCC1(C(=O)N(C)Cc2ccccc2)CCN(C(=O)OC(C)(C)C)CC1 | 4.78
CC(=O)Nc1sc2c(c1C(c1cccc(F)c1)N1CCN(CCO)CC1)CCCC2 (configuration not stated) | -13.5
C=CC1C(OC2OC(CO)C(O)C(O)C2O)OC=C(C(=O)OC)C1CC1CC(=O)CC(CC(=O)CCc2ccc(O)cc2)O1 (configuration not stated) | 3.85
COC(C[C@@H](O)C[C@@H](O)[C@H](C)OCc1ccccc1)OC | 1.16
c1ccc(-c2ccnc3nc(-n4cccc4)nn23)cc1 | -3.61

Exercise: Form field: reported inhibition of CCC(C)[C@@H](C(=O)N1CCNCC1)n1cc(CCCCN)nn1 (some centres not stated)
Solution: -10

Exercise: Form field: reported inhibition of C=CC(COCc1ccccc1)N(Cc1ccccc1)S(=O)(=O)c1ccccc1Br (configuration not stated)
Solution: 14.3

Exercise: Form field: reported inhibition of O=c1[nH]snc1-c1c(Cl)cccc1Cl
Solution: -15.8

====

# Tested on: RmlC (dTDP-4-dehydrorhamnose 3,5-epimerase) and RmlD (dTDP-4-dehydrorhamnose reductase), coupled enzyme assay
# assay_overview: RmlC and RmlD coupled enzyme inhibitors, primary screen, biochemical, 384-well, compound mixtures, retest (AID 1532)
# condition_notes: 384-well mixture HTS, at 5.5 µM, stronger effect = higher value
Hit rate of the full screen: of about 110,000 compounds, about 420 (0.38%) were called active. Only a selection was taken, and actives are over-represented in it overall.
Parameter inhibition: see the listing below.
Just the number please, in %, no unit attached.

Study these solved cases before continuing.
CCc1nnc(SCc2cccc(F)c2)nc1CC | -1.83
O=C(NCc1ccccc1)c1onc(CSc2ccncc2)c1C(=O)NCc1ccccc1 | 2.05
CCOC(=O)c1sc(NC(=O)CSc2nc3c(c(=O)n2-c2ccccc2)SCC3)c(C(=O)OCC)c1C | -104

Exercise: Form field: reported inhibition of CC1=C(C)C(=O)OC(C(C)C2CCC3C4CC=C5CC(OC6OC(COC7OC(CO)C(O)C(O)C7O)C(O)C(O)C6O)CC(O)C5(C)C4CCC23C)C1 (centres undefined)
Solution: -13.2

Exercise: Form field: reported inhibition of CN1CCN(C(CNS(=O)(=O)c2cccs2)c2cccnc2)CC1 (centres undefined)
Solution: -1.39

Exercise: Form field: reported inhibition of CCOC(=O)N1CCN(C(=O)c2cc3c(ccc4ccccc43)oc2=O)CC1
Solution: 2.38

Exercise: Form field: reported inhibition of CC1(OC(=O)CCc2ccccc2)C(=O)C=C2C=C(c3ccc(C#N)cc3)N(CCc3ccccn3)C=C2C1=O (centres undefined)
Solution: 3.85

Exercise: Form field: reported inhibition of Cc1nc(-c2ccccc2)sc1C1(C)CC(c2cccnc2)=NO1 (centres undefined)
Solution: 1.85

Exercise: Form field: reported inhibition of C/C=C\C=C\C(=O)N1CC2(CC(c3cccc(NC(=O)/C(C)=C\C)c3)=NO2)C[C@H]1C(N)=O (some centres undefined)
Solution: -0.91

====

# Test system: RmlC (dTDP-4-dehydrorhamnose 3,5-epimerase) and RmlD (dTDP-4-dehydrorhamnose reductase), coupled enzyme assay
# assay_overview: RmlC and RmlD coupled enzyme inhibitors, primary screen, biochemical, 384-well, compound mixtures, retest (AID 1532)
# condition_notes: 384-well mixture HTS, measured here: mean retest inhibition, at 5.5 µM, stronger effect = higher value
Out of some 110,000 compounds screened, about 420 (0.38%) were called active. This excerpt belongs to a sample that is enriched for actives.
reported_property: inhibition (%)
Just the number please, in %, no unit attached.

CCCn1c(=NC(C)=O)c(C(=O)OCC)cc2c(=O)n3ccccc3nc21 | 60.1

Exercise: Form field: reported inhibition of CCCc1cc(=O)oc2c(C)c(O)c(CN3CCCCC3)cc12
Solution: 66.6

Exercise: Form field: reported inhibition of CCOC(=O)/C=C/c1ccc(C(F)(F)F)cc1S(=O)(=O)NC(C)(C)C
Solution: -3.06

These entries and their values trace back to PubChem BioAssay AID1532.
